Values from paper PMC3695512

Biological target: T1, Hera_1-491 (Thermus thermophilus, UniProt O07897 1-491, del492-510)
T1 sequence: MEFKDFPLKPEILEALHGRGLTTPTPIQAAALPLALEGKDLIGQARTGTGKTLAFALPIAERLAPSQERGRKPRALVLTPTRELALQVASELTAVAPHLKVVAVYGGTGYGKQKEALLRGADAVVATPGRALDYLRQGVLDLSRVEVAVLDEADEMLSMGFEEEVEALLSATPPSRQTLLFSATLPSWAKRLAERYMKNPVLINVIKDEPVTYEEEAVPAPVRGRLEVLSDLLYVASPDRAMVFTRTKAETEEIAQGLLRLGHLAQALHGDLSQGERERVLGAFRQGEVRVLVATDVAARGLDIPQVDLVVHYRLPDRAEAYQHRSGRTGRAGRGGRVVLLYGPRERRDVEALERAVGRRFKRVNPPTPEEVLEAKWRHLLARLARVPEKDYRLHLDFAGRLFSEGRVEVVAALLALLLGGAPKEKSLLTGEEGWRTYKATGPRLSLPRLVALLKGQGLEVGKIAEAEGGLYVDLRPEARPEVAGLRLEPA
Assay: fluorescence anisotropy; 5 mM Mg2+; Anisotropy: 50 mM Tris/HCl pH 7.5, 150 mM NaCl, 5 mM MgCl2 (Fig 2), 25 C, 50 nM RNA; EMSA: same Tris/NaCl, 12% glycerol, 25 C; NMR: 25 mM Bis-Tris/HCl pH 6.0, 50 mM NaCl, 10% D2O, 37 C
Settings: protein: recombinant; chain copies: 2; label: 5'-fluorescein; hairpin with 5' single strand
Observation Type: Kd (µM)

>>> recorded_measurement("GCAGGUCCCAAGGGUUGGGCUGUUCGCCCAUU (structured_RNA) [32mer]")
1.1
